# TARGET_UNDER_TEST: PfENT1 mutant R291A (Plasmodium falciparum, UniProt Q8IDM6, R291A)
# Construct: 10xHis (N); made in house; host or cells: Sf9 insect cells (baculovirus)
# Sequence (Q8IDM6 whole entry R291A): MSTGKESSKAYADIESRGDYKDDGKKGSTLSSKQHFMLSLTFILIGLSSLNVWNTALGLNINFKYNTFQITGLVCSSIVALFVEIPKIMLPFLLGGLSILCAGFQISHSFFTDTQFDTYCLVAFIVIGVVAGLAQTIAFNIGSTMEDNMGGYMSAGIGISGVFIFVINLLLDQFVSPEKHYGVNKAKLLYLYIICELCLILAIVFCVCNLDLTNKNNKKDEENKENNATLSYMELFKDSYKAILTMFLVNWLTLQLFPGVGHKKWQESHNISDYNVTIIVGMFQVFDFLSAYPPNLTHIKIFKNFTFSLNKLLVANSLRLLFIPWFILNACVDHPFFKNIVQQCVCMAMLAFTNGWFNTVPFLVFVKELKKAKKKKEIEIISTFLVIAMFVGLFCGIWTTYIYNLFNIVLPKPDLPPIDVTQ
# PROCEDURE_DETAILS: ITC binding to PfENT1 mutant R291A
# PROTOCOL_CONDITIONS: Kd, Mean and Mean ± SD, source data Figure 3c, construct R291A
MEASURED_ENDPOINT: Kd (µM)
Output spec: scalar in µM, unitless text.

Can you share its Kd? I mean this compound: OC[C@H]1O[C@@H](n2cnc3c(O)ncnc32)[C@H](O)[C@@H]1O
46.7

---

# TARGET_UNDER_TEST: PfENT1 (Plasmodium falciparum, UniProt Q8IDM6)
# Construct: expressed in transfected cells; host or cells: S. cerevisiae BY4741, FUI1 deleted, PfENT1 knock-in under the TEF1 promoter
# Sequence (Q8IDM6 whole entry): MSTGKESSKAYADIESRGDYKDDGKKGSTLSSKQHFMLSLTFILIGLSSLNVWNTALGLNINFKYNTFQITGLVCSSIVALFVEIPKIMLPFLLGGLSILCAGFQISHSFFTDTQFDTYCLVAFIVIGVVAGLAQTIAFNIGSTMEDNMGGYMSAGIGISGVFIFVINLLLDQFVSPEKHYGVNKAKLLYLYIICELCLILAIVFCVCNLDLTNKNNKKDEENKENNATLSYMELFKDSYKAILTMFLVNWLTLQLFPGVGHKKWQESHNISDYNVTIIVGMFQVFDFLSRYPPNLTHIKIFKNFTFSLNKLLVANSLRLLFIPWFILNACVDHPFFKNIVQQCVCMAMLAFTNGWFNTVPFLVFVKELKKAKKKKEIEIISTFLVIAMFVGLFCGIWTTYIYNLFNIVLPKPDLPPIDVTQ
# PROCEDURE_DETAILS: cell-based
# Format: cell-based
# PROTOCOL_CONDITIONS: competition by nonradioactive nucleoside/nucleobase 5 mM, 30 min, 30 °C; uptake without competitor set as 100%; Fig. 1c
# Protocol: The S. cerevisiae strain (ATCC, #201388) BY4741 (MATa his3Δ1 leu2Δ0 met15Δ0 ura3Δ0) was used as the starting yeast strain. Yeast strains were cultured in YPD medium (20 g/L peptone, 10 g/L yeast extract, and 20 g/L dextrose). […] Cells were grown overnight in YPD medium to mid-log phase and harvested by centrifugation at 3000 × g for 5 min. […] Counts were measured using a liquid scintillation analyzer (Perkin Elmer, Tri-Carb 5110TR). […]
MEASURED_ENDPOINT: Uptake of [3H]-inosine (Percentage of PfENT1 WT)

{"columns": ["ENTRY_SMILES", "RESULT"],
 "data": [
  ["Nc1nc2c(ncn2[C@@H]2O[C@H](CO)[C@@H](O)[C@H]2O)c(=O)[nH]1", "abolished"],
  ["Cc1cn([C@H]2C[C@H](O)[C@@H](CO)O2)c(=O)[nH]c1=O", "41%"],
  ["OC[C@H]1O[C@@H](n2cnc3c(O)ncnc32)[C@H](O)[C@@H]1O", "abolished"]
]}

---

# TARGET_UNDER_TEST: PfENT1 (Plasmodium falciparum, UniProt Q8IDM6)
# Construct: expressed in transfected cells; host or cells: S. cerevisiae BY4741, FUI1 deleted, PfENT1 knock-in under the TEF1 promoter
# PROCEDURE_DETAILS: cell-based
# Assay type: cell-based
# PROTOCOL_CONDITIONS: 0.5 h, read-out: Uptake of [3H]-inosine (Percentage of PfENT1 WT), competition by nonradioactive nucleoside/nucleobase 5 mM, 30 min, 30 °C; uptake without competitor set as 100%; Fig. 1c
Rule for this label: met means remaining activity at 5000 µM is less than 20%; not met means remaining activity at 5000 µM is at least 20%.

// below: answered compounds
{"columns": ["ENTRY_SMILES", "CLASS_ASSIGNMENT"],
 "data": [
  ["O=c1[nH]cnc2nc[nH]c12", "not met"],
  ["O=c1ccn([C@@H]2O[C@H](CO)[C@@H](O)[C@H]2O)c(=O)[nH]1", "not met"],
  ["Cc1cn([C@H]2C[C@H](O)[C@@H](CO)O2)c(=O)[nH]c1=O", "not met"],
  ["OC[C@H]1O[C@@H](n2cnc3c(O)ncnc32)[C@H](O)[C@@H]1O", "met"],
  ["Nc1ncnc2c1ncn2[C@@H]1O[C@H](CO)[C@@H](O)[C@H]1O", "met"]
]}

Now consider a different compound.
Please check: remaining activity at 5000 µM for Nc1nc2c(ncn2[C@@H]2O[C@H](CO)[C@@H](O)[C@H]2O)c(=O)[nH]1 , strictly under 20% or not?
met
